Active and inactive are the calls of the source.
Measured IC50 (UniProt P04406)
Sequence (P04406 whole entry): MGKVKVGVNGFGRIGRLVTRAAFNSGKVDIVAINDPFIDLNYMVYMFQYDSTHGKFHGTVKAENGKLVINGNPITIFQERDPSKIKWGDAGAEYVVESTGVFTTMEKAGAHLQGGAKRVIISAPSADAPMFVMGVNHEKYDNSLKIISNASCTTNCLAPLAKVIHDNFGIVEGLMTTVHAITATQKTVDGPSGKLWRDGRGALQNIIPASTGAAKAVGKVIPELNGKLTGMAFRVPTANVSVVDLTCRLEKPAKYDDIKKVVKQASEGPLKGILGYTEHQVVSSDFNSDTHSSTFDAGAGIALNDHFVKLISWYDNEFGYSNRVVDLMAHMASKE
measuredQuantity: IC50

INSERT INTO measurements (cpdsmiles, testresult) VALUES
  ('Cc1cc(C)c2nc3s/c(=C\c4ccc(-c5ccccc5C(=O)O)o4)c(=O)n3c2c1', '87.1 µM (active)'),
  ('CCn1cnc(-c2cccnc2)c1', '> 100 µM (not active)'),
  ('c1cnc(-c2cccnc2)nc1', '> 100 µM (not active)'),
  ('O=C(O)c1cc(-c2ccc3c(c2)OCCO3)n[nH]1', '> 100 µM (not active)'),
  ('O=C1C(Cl)=C(N2CCN(C/C=C/c3ccccc3)CC2)C(=O)N1c1ccnc(Cl)c1', '> 50 µM (inconclusive)');

---

- protocolText: Late stage assay provider results from the probe development effort to identify inhibitors of Protein Phosphatase Methylesterase 1 (PME-1): luminescence-based […] dose response assay to determine cytotoxicity of inhibitor compounds. [Related pubchem assays (depositor defined):AID2130, AID2143, AID2171, AID2174, AID2177, AID2232, AID2233, AID2291, AID2363, AID2365, AID2366, AID2368, AID2369, AID2371, AID463124, AID463130, AID463131, AID463132, AID463146, AID463149] Panel member name: Serum-free Media
- Format: toxicity
Active and inactive are the calls of the source.
measuredQuantity: CC50

INSERT INTO measurements (cpdsmiles, testresult) VALUES
  ('COC(=O)N1C(=O)[C@](c2ccccc2)(C2CCCC2)N1C(=O)OC', '> 50 µM (inactive)');

---

- assayTarget: fMet-Leu-Phe receptor (Homo sapiens, UniProt P21462)
- Sequence (P21462 whole entry): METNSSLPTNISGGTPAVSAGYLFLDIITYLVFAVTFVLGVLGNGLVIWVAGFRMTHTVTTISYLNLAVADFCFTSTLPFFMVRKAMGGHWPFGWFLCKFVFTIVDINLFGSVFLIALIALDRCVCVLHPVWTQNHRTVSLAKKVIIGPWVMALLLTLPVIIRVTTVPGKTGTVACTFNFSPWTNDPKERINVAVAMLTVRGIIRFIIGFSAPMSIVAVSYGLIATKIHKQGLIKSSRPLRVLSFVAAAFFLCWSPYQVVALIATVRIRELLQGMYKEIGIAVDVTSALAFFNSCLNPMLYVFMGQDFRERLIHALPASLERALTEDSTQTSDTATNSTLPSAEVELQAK
- protocolText: FPR ligands, dose response (AID 519)
- Format: functional
The source made the active and inactive calls.
// Ki lookup, one value per entry
measuredQuantity: Ki

INSERT INTO measurements (molecule, testresult) VALUES
  ('CCCc1cc(O)n2nc(C)c(-c3ccccc3)c2n1', '> 66.7 µM (inactive)'),
  ('COc1cc(C2C(C(=O)c3ccc4c(c3)CC(C)O4)=C(O)C(=O)N2CCCn2ccnc2)ccc1O (centres undefined)', '57.5 µM (inactive)'),
  ('CCOC(=O)c1c(NC(=O)c2cc(C3CC3)on2)sc2c1CCCC2', '> 66.7 µM (inactive)'),
  ('O=C(NCc1cccnc1)C1c2ccccc2C(=O)N1C1CCCCCC1 (centres undefined)', '36.4 µM (inactive)');

---

- assayTarget: High affinity choline transporter 1 (Homo sapiens)
- Sequence (Q9GZV3 whole entry): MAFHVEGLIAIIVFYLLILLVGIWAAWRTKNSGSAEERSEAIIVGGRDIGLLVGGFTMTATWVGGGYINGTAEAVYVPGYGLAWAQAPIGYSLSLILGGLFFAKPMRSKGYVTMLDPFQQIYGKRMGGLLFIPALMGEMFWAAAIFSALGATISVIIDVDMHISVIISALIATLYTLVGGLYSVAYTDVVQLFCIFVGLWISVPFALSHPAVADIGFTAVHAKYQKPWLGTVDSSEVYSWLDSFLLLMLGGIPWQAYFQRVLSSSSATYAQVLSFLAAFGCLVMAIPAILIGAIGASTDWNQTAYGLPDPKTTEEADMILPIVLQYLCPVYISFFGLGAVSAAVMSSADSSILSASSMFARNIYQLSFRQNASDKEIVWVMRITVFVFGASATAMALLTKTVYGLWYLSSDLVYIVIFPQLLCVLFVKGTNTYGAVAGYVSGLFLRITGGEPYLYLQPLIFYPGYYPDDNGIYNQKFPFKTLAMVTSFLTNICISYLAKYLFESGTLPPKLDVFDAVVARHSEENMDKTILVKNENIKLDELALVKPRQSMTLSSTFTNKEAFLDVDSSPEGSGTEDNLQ
- protocolText: CHT inhibitors, dose response, cell-based, 5-point CRC, membrane potential dye (AID 504840)
- Type: functional
Activity calls are given as the source filed them.
// IC50 lookup, one value per entry
measuredQuantity: IC50

INSERT INTO assay_data (molecule, measuredquantity, testresult) VALUES
  ('CNc1cc(Cl)nc(SC)n1', 'IC50', '3.92 µM (active)'),
  ('CCCN(CC(=O)Nc1ccc(F)c(F)c1F)C(=O)Cn1c(=O)cnc2ccccc21', 'IC50', '12.3 µM (active)'),
  ('Cc1ccc(S(=O)(=O)N2[C@@H](c3ccc(Cl)cc3)C(C(=O)O)=CC[C@H]2c2ccc(Cl)cc2)cc1', 'IC50', '5.01 µM (active)'),
  ('O=S(=O)(NCc1csc(-c2cccs2)n1)c1cccc(C(F)(F)F)c1', 'IC50', '14.5 µM (active)'),
  ('Cc1ccccc1NC(=O)c1ccc(F)c(S(=O)(=O)NCC2CCCO2)c1 (stereo unspecified)', 'IC50', '12.3 µM (active)'),
  ('CCCc1nnc(NC(=O)c2nc(S(=O)(=O)Cc3ccc(C)cc3)ncc2Cl)s1', 'IC50', '2.59 µM (active)'),
  ('O=C(Cn1ncc2c3ccccc3n(Cc3ccccc3)c2c1=O)NCCCN1CCCC1', 'IC50', '13.2 µM (active)'),
  ('O=C(NNC1=C(C(=O)C(F)(F)F)CCC1)c1cccc(Cl)c1', 'IC50', '11 µM (active)'),
  ('N#CC(C#N)=C(Nc1ccc(F)cc1)SCc1cccc(F)c1', 'IC50', '4.79 µM (active)'),
  ('NC(=O)CC(NC(=O)c1ccccc1)c1ccc(N2CCCCCC2)c([N+](=O)[O-])c1 (stereo unspecified)', 'IC50', '7.51 µM (active)'),
  ('Cc1nnc(Sc2nc3ccccc3o2)c2ccccc12', 'IC50', '13.5 µM (active)');

---

- assayTarget: Small ubiquitin-related modifier 1 (Homo sapiens, UniProt P63165)
- Sequence (P63165 whole entry): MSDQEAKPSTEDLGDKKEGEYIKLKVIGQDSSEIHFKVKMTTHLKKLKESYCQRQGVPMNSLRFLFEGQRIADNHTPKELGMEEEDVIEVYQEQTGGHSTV
- protocolText: inhibitors of SUMO1 partner interactions, dose response, biochemical, FRET (AID 624383)
- Type: functional
- conditionSummary: read-out: IC50_Mean
Calls of active or inactive are those of the source.
measuredQuantity: IC50

INSERT INTO measurements (compound, testresult) VALUES
  ('O=C(O)c1cccc2c1NC(C(=O)O)C1CC(Sc3ccccc3[N+](=O)[O-])C(Cl)C21 (stereo not given)', '5.21 µM (active)'),
  ('C/C(=N\NC(=O)c1cc(O)cc(O)c1)c1ccc(NC(=O)Cc2ccccc2)cc1', '12 µM (active)'),
  ('CCC(C)[C@@H](CN)NCC1(c2ccccc2)CC1 (stereo not given in full)', '18.4 µM (active)'),
  ('COc1ccc(-c2cc3nc4ccccc4n3c(N)c2C#N)cc1', '7.98 µM (active)'),
  ('[O-][S+](c1cc(Cl)cc(Cl)c1O)c1cc(Cl)cc(Cl)c1O [BITHIONOLOXIDE]', '9.66 µM (active)');

---

- assayTarget: Luciferin 4-monooxygenase (Photinus pyralis)
- Sequence (P08659 whole entry): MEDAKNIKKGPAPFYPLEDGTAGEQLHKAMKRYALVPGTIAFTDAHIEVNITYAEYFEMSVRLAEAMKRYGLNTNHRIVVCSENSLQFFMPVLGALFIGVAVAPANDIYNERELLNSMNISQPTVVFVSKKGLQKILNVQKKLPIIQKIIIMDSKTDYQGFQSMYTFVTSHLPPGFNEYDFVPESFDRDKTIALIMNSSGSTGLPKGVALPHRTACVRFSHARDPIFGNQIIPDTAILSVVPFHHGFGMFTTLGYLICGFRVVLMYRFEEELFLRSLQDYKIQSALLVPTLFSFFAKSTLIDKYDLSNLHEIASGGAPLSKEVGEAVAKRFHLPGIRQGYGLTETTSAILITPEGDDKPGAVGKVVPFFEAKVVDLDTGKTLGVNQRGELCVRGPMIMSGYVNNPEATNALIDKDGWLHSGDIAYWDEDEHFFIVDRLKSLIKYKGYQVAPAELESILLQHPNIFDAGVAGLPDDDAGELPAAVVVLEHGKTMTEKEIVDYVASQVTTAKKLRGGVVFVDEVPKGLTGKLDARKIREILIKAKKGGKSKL
- protocolText: firefly luciferase enzyme inhibitors, dose response, biochemical, luminescence (AID 1891)
Active and inactive are the calls of the source.
measuredQuantity: EC50

INSERT INTO measurements (cpdsmiles, assaytarget, testresult) VALUES
  ('Cc1cc(NC(=O)c2cccc(F)c2)ncc1NC(=O)c1ccco1', 'Luciferin 4-monooxygenase (Photinus pyralis)', '7.28 µM (active)'),
  ('O=C(c1cccc(S(=O)(=O)N2CCOCC2)c1)N1CCN(c2ccc(F)cc2)CC1', 'Luciferin 4-monooxygenase (Photinus pyralis)', '> 112 µM (not active)'),
  ('COc1ccc(-c2csc(CCn3nc(C)cc3C)n2)cc1', 'Luciferin 4-monooxygenase (Photinus pyralis)', '> 112 µM (not active)'),
  ('COC(=O)CS(=O)(=O)c1ccc2c(c1)CC(=O)N2', 'Luciferin 4-monooxygenase (Photinus pyralis)', '> 112 µM (not active)'),
  ('CC(=O)OCCNC(=O)Cn1cnc2c1c(=O)n(C)c(=O)n2C', 'Luciferin 4-monooxygenase (Photinus pyralis)', '> 112 µM (not active)');

---

// GI50 lookup, one value per entry
- Tested on: P388;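 note: compound exposure lasted 48 hours before growth was measured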
- protocolText: cells
- Assay type: functional
- conditionSummary: Mus musculus
Activity calls are given as the source filed them.
measuredQuantity: GI50

INSERT INTO measurements (molecule, testresult) VALUES
  ('CC1C(=O)CC(c2cccs2)N(N=O)C1c1cccs1 (centres undefined)', '20.4 µM (inactive)'),
  ('CCCCCCc1cn([C@H]2C[C@H](O)[C@@H](CO)O2)c(=O)[nH]c1=O', '> 100 µM (inactive)'),
  ('O=c1oc2c(ccc3occc32)c(N2CCCCC2)c1-c1ccccc1', '34.7 µM (inactive)'),
  ('CCOC(=O)/C=C/c1c[nH]c(=O)[nH]c1=O', '> 75 µM (inactive)');

These data points were gathered from ChEMBL document CHEMBL1201862.
